SYSTEM TESTED: human ALK2 R206H (Homo sapiens, UniProt Q04771, R206H)
Construct: expressed in transfected cells; host or cells: HEK293 (ATCC CRL1573), lentivirus transduction, blasticidin selection
Sequence (Q04771 21-509 R206H): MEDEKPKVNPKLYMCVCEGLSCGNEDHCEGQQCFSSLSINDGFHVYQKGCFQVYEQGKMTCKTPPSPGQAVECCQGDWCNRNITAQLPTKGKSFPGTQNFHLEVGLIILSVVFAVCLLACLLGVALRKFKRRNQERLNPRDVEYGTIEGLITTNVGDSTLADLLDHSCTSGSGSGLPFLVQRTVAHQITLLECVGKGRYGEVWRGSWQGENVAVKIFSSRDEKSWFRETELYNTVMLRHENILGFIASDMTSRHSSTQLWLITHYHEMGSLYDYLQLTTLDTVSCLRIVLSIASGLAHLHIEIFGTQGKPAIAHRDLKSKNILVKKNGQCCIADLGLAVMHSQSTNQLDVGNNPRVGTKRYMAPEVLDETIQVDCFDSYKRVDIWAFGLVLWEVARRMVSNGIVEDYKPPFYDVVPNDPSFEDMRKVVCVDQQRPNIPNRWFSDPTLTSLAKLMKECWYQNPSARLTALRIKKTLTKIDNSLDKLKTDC
TEST: Cell-based ALK2-R206H cell activity assay (Smad1-Ser463/Ser465 phosphorylation by AlphaLISA in HEK293-ALK2-R206H cells)
STUDY CONDITIONS: read-out: Cell Line (Cell Assay IC50)
Procedure: A HEK293 (ATCC, Cat^# CRL1573) based stable cell line expressing human ALK2 R206H cDNA (synthesized by GeneScript, Piscataway, N.J.) and a FLAG tag at the C-terminus was generated by lentivirus transduction and subsequent blasticidin (Life Technologies, Cat^#-A1113902) selection at 10 μg/ml for >2 wks. This cell line was named HEK293-ALK2-R206H. Test compounds were first diluted to 4 mM or 0.4 mM and then serially diluted 3-fold into 10 different concentrations using DMSO. […]
pIC50: −log10 of the molar value.
MEASURED QUANTITY: pIC50

stdin: Identify measured pIC50 corresponding to CCOC(=O)N1CCN(c2ccnn3cc(-c4ccc([C@@]5(F)CCCN(C(C)C)C5)cn4)cc23)CC1
stdout: > 7.00

stdin: Supply pIC50 value. Item: CC(C)N1CC[C@](O)(c2ccc(-c3cc4c(N5CCN(C(=O)C6CC6)CC5)ccnn4c3)cc2)C1
stdout: > 7.00

stdin: // Input: CCOC(=O)N1CCN(c2ccnn3cc(-c4ccc([C@@]5(OC)CCN(C(C)C)C5)cc4)cc23)CC1 . Output its pIC50 only.
stdout: > 7.00

stdin: Fill in pIC50 for record CC(C)N1C[C@@H](c2ccc(-c3cc4c(N5CCN(C(=O)C6CC6)CC5)ccnn4c3)cc2)C[C@@H]1C
stdout: 6.30 to 7.00

stdin: Identify the reported pIC50 for the following entry. CCN1CCN(c2ccc(-c3cc4c(N5CCN(C(=O)N6CCC6)CC5)ccnn4c3)cc2)CC1
stdout: 6.30 to 7.00

stdin: Specify measured pIC50 for CC(C)N1CCC[C@@H](c2ccc(-c3cc4c(N5CCN(C(=O)[C@H]6C[C@H](C#N)C6)CC5)ccnn4c3)cc2)C1 .
stdout: > 7.00

stdin: Give recorded pIC50. CO[C@]1(c2ccc(-c3cc4c(N5CCN(C(=O)C6CC6)CC5)ccnn4c3)cc2F)CCCN(C(C)C)C1
stdout: > 7.00

stdin: Item O=C(C1CC1)N1CCN(c2ccnn3cc(-c4cnn(C5CNCC(F)(F)C5)c4)cc23)CC1 (centres unmarked) : provide pIC50
stdout: 6.30 to 7.00
